Recorded MIC by entry
Tested on: Aspergillus fumigatus
Test: Antifungal activity against Aspergillus fumigatus by broth dilution method
Type: functional
Starred links: 1 amine or outer side, 2 acyl side, 3 side chain; linkers in the order of their positions; H or OH if unused. Non-standard residues stand in square brackets, D forms with d. Residues, ends and D or L forms follow the SMILES beside them. X12 = CC(=O)Nc1ccc(-c2cccc(C[C@@H](C(=O)[*:2])N(C)[*:1])c2)cc1; X3 = CN([C@@H](Cc1cccc(-c2ccc(Cl)cc2)c1)C(=O)[*:2])[*:1]; X9 = CN([C@@H](Cc1cccc(-c2ccncc2)c1)C(=O)[*:2])[*:1]; Hmp(2R,3S) = CC[C@H](C)[C@@H](O)C(=O)O; NMeVal(β-OH) = CN[C@H](C(=O)O)C(C)(C)O; NMeV = CN[C@H](C(=O)O)C(C)C
Endpoint name: MIC

INSERT INTO results (compound, endpoint_name, meas_value) VALUES
  ('CC[C@H](C)[C@@H]1NC(=O)[C@@H]2CCCN2C(=O)[C@H](Cc2cccc(-c3ccc(NC(C)=O)cc3)c2)N(C)C(=O)[C@H](Cc2ccccc2)NC(=O)[C@H](C(C)C)N(C)C(=O)[C@@H]([C@@H](C)CC)OC(=O)[C@H](C(C)(C)O)N(C)C(=O)[C@H](CC(C)C)NC(=O)[C@H](C(C)C)N(C)C1=O (cyclo(F[X12]PI[NMeV]L[NMeVal(β-OH)][Hmp(2R,3S)][NMeV]))', 'MIC', '> 5 µg/mL'),
  ('CC[C@H](C)[C@@H]1NC(=O)[C@@H]2CCCN2C(=O)[C@H](Cc2cccc(-c3ccc(Cl)cc3)c2)N(C)C(=O)[C@H](Cc2ccccc2)NC(=O)[C@H](C(C)C)N(C)C(=O)[C@@H]([C@@H](C)CC)OC(=O)[C@H](C(C)(C)O)N(C)C(=O)[C@H](CC(C)C)NC(=O)[C@H](C(C)C)N(C)C1=O (cyclo(F[X3]PI[NMeV]L[NMeVal(β-OH)][Hmp(2R,3S)][NMeV]))', 'MIC', '< 2.5 µg/mL'),
  ('CC[C@H](C)[C@@H]1NC(=O)[C@@H]2CCCN2C(=O)[C@H](Cc2cccc(-c3ccncc3)c2)N(C)C(=O)[C@H](Cc2ccccc2)NC(=O)[C@H](C(C)C)N(C)C(=O)[C@@H]([C@@H](C)CC)OC(=O)[C@H](C(C)(C)O)N(C)C(=O)[C@H](CC(C)C)NC(=O)[C@H](C(C)C)N(C)C1=O (cyclo(F[X9]PI[NMeV]L[NMeVal(β-OH)][Hmp(2R,3S)][NMeV]))', 'MIC', '< 1.25 µg/mL');

Provenance of the data: ChEMBL document CHEMBL3588806
